// data source = patent US20020065219A1

Consider the following compounds and their measured MIC (μg/mL) against Enterococcus faecalis A20688 readings.
Test system: Enterococcus faecalis A20688
protocolDetails: MIC, broth micro dilution assay (NCCLS)
Type: cell-based
experimentalContext: Mueller-Hinton medium, 35° C., 18 hours
Write it as a number; the unit µg/mL goes unstated.

Some compounds with known MIC (μg/mL) against Enterococcus faecalis A20688 results, for comparison:
[[record]]
compound = "CO/C(C)=C1/NC(=O)C(C(C)O)NC(=O)c2csc(n2)-c2cc(O)c(-c3nc(C(=O)NC(CSCC(=O)OCc4ccccc4)C(N)=O)cs3)nc2-c2csc(n2)C2COC(=O)c3c4c5c(cccc5n3O)COC(=O)C(O[C@H]3C[C@](C)(O)[C@H](N(C)C)[C@H](C)O3)C(OC4)C(NC(=O)c3csc1n3)c1nc(cs1)C(=O)N2 (stereo partly drawn)"
testtarget = "Enterococcus faecalis A20688"
reportedvalue = 1.0

[[record]]
compound = "CO/C(C)=C1/NC(=O)C(C(C)O)NC(=O)c2csc(n2)-c2cc(O)c(-c3nc(C(=O)NC(CN(C)CCc4ccccn4)C(N)=O)cs3)nc2-c2csc(n2)C2COC(=O)c3c4c5c(cccc5n3O)COC(=O)C(O[C@H]3C[C@](C)(O)[C@H](N(C)C)[C@H](C)O3)C(OC4)C(NC(=O)c3csc1n3)c1nc(cs1)C(=O)N2 (stereo partly drawn)"
testtarget = "Enterococcus faecalis A20688"
reportedvalue = 0.25


Attention now shifts to the item below.
The value of MIC (μg/mL) against Enterococcus faecalis A20688 measured for the compound COC(C)=C1NC(=O)C(C(C)O)NC(=O)c2csc(n2)-c2cc(O)c(-c3nc(C(=O)NC(CNC(CO)Cc4c[nH]cn4)C(N)=O)cs3)nc2-c2csc(n2)C2COC(=O)c3c4c5c(cccc5n3O)COC(=O)C(OC3CC(C)(O)C(N(C)C)C(C)O3)C(OC4)C(NC(=O)c3csc1n3)c1nc(cs1)C(=O)N2 (stereo not drawn) [Example 67] turned out to be 8.0
